These measurements were taken from patent US20240400689A1.

- target_desc: T1, human CD276 protein (human, UniProt Q5ZPR3 29-534)
- T1 construct: whole, on cells; for SKOV3 and the other cancer lines the protein is the cells' own; also called B7-H3; B7H3
- T1 sequence (looked up): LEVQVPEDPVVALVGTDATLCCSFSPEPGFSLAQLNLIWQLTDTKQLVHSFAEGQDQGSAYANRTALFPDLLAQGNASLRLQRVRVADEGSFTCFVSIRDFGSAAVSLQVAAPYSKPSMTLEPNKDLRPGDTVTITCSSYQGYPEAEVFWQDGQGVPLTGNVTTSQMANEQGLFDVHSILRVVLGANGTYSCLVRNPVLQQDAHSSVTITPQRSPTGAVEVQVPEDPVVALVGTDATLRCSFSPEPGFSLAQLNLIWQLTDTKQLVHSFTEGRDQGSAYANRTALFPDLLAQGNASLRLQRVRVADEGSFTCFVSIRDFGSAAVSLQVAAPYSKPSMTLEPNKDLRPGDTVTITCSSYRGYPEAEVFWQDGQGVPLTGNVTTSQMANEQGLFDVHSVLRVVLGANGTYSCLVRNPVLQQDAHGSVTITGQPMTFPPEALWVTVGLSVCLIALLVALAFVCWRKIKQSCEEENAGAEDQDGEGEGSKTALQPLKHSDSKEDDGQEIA
- test_details: FACS on CHO-S-hCD276 cells
Each entry below carries its recorded FACS MFI.
Response field accepts a number only; no unit should be typed.

Some binders with known FACS MFI results, for comparison:
[
  {
    "binder": "30-C7-C11-D4 (antibody, V domains shown, mouse monoclonal antibody (hybridoma)) VH: EVQLVESGPGLVKPSQSLSLTCTVTGYSITSDYAWNWIRQFPGNKLEWMGYISHSGSTSYNPSLKSRISITRDTSKNQFFLQLNSVTTEDTATYYCARSLGRRWYFDVWGAGTTVTVSS VL: DIVMTQSPSSLAMSVGQKVTLSCKSSQSLLNSSTQKNYLAWYQQKPGQSPKLLVYFASTRDSGVPDRFIGSGSGTEFTLTISSVQAEDLADYFCQQHYIIPFTFGAGTKLEIK",
    "assay_result": 138000
  },
  {
    "binder": "27-F8-E10-E11 (antibody, V domains shown, mouse monoclonal antibody (hybridoma)) VH: EVQLQQSGPELVKPGASVKISCKTSGYTFTEYAMHWVKQSHGKILEWIGGINPNIGGTTYNQKFKDKATLTVDKSSSTASMELRSLTSEDSAVYYCARFLVPSTEGFTYWGQGTLVTVSA VL: QIVLTQSPAIMSASPGEKVTMTCSASSSVSYMHWYQQKSGTSPKRWIYDTSRVASGVPARFSGSGSGTSYSLTISSMEAEDAATYYCQQWSSNPLTFGAGTKLELK",
    "assay_result": 16000
  }
]

Ask: What value of FACS MFI has been reported for the following binder? 30-E2-G7-G7 (antibody, V domains shown, mouse monoclonal antibody (hybridoma)) VH: EVQLQESGGGLVKPGGSLKLSCAASGFTFSYYAMSWVRQTPEKRLEWVATINGDGSHTYYPDSVRGRFTISRDNAKNTLYLQVSSLRSEDTAMYYCASLLQLGPFWGQGTTLTVSS VL: DIVMTQSQKFMSTSVGDRVSVTCKASQNVGTNVAWYHQRPGQSPKPLIYSASYRYSGVPDRFTGSGSGTDFTLTISNVQSEDLAEYFCQQYNNYPLTFGSGTKLEIK
Reply: 47000

Ask: Another binder to look at: 5-D1-G6-D9 (antibody, V domains shown, mouse monoclonal antibody (hybridoma)) VH: EVQLQESGAELVKPGASVKLSCKTSGLTFSTNYISWLKQKPGQSLEWIAWIYGGNGGTSYNQRFTGKAQLTVDTSSSTAYMQFSSLTTEDSAIYYCTSHDYYGGPMDYWGQGTSVTVSS VL: DIQMTQTTSSLSASLGDRVTISCRASQDISNYLNWYQQKPDGTVKLLIYFTSRLHSGVPSRFSASGSGTDYSLTISNLEQEDIATYFCQQTNTLPWTFGGGTKLEIK
Reply: 45300

Ask: And then 6-F3-G2-G1 (antibody, V domains shown, mouse monoclonal antibody (hybridoma)) VH: QVQLQQPGAELVKPGASVKLSCKASDYTFTNYWMHWVKQRPGQGLEWIGMIHPNSGTTSYNEKFKNKATLTVDTSSATTYMHLSSLTSEDSAVYYCASHYGNSYSAMDYWGQGTSVTVSS VL: QAVVTQESALTTSPGGTVILTCRSSTGAVTTSNYANWVQEKPDHLFTGLIGGTSNRAPGVPVRFSGSLIGDKAALTITGAQTEDDAMYFCALWYSTHYVFGGGTKVTVL , what is it?
Reply: 37400
